melting point for assorted compounds

Reported melting point, compound "CC(C)n1c(=O)n(C(=O)NCC2CCN(CC3(C(=O)O)CCCCC3)CC2)c2ccccc21" : ____ 151 °C

Would you mind telling me what melting point value was observed for "Cc1oc(-c2ccccc2)nc1COc1ccc(CON=C(C(=O)O)C(C)C)cc1" ? 128 to 129 °C

Tell me the measured melting point of "COC(=O)CCSCCNC(=O)/C=C/C=C/c1ccccc1" , please. 58 to 60 °C

----------
Quick list: melting point per entry.

                                   compound    measurement
0         CCCCc1ccc2nc(Cl)c(S(N)(=O)=O)n2n1         166 °C
1  CCCCC(C(N)=O)n1ccnc1 (stereo unspecified)    90 to 91 °C
2  CCC(C)OC(=O)C(C(=O)Nc1nc(C)cs1)=C1SCS1 (stereo unspecified)  153 to 154 °C
3  CCOCc1nc2c(N)nc3cc(O)ccc3c2n1CC(C)(C)NC(=O)NC(C)C  163 to 168 °C
4                     CCCCn1cccc1C(=O)N(C)C         132 °C

Request the reported melting point associated with "Cc1ccccc1C(=O)Nc1ccc(C(=O)N2CCc3cnoc3-c3ccccc32)cc1" 257 to 260 °C

Recorded melting point for COc1cccc(C2Nn3cc(-c4cc(-c5ccc(Cl)cc5Cl)no4)nc3S2)c1 (stereo unspecified) , please? 195 to 198 °C

Could you tell me which melting point is on file for "CNc1nc2ccc(OC(F)(F)F)cc2s1" ? 162 °C

Tell me the measured melting point of "CSc1cc(C)nc(SC)c1NC(=O)CCl" , please. 190 to 192 °C

Param item = "CCN1c2ncc(C=Cc3cccc(C)c3)cc2C(=O)N(C)c2cccnc21" ; retrieve measured melting point. 207 to 208 °C

What value of melting point has been reported for the following compound? "CCOC(=O)c1cc(C(=O)NC)nc(C(=O)NC)c1" 183 to 184 °C

Where these numbers come from: a melting point compilation (Tetko et al.; mined from patent text by program, amines drawn as free bases though some values may be those of a salt)
